Details: in methyl acetate, 313.15 K
endpointName: solubility (mole fraction)

Return reported solubility (mole fraction); argument: CC(=O)NC1CCSC1=O (stereo unspecified)
0.081

###

Settings: in ethyl acetate, 283.15 K
endpointName: solubility (mole fraction)
Give bare numbers.

Can you look up the measured solubility (mole fraction) of CC(=O)NC1CCSC1=O (stereo unspecified) for me?
0.0199

###

Conditions: in n-propanol, 298.15 K
endpointName: solubility (mole fraction)
One number for each entry.

Any idea what its solubility (mole fraction) is? The molecule is CC(=O)NC1CCSC1=O (stereo unspecified)
0.0678

###

Conditions: in 2-methoxyethanol, 283.15 K
endpointName: solubility (mole fraction)
Numbers only.

Look up solubility (mole fraction): CC(=O)NC1CCSC1=O (stereo unspecified)
0.15

###

Details: in 2-ethoxyethanol, 308.15 K
endpointName: solubility (mole fraction)
Give bare numbers.

Look at this molecule and give its reported solubility (mole fraction). CC(=O)NC1CCSC1=O (stereo unspecified)
0.199

###

Settings: in n-butyl acetate, 313.15 K
endpointName: solubility (mole fraction)
Give bare numbers.

Using the record for CC(=O)NC1CCSC1=O (stereo unspecified) , report its solubility (mole fraction).
0.0364

###

Conditions: in methyl acetate, 278.15 K
endpointName: solubility (mole fraction)
One number for each entry.

Recorded solubility (mole fraction) of CC(=O)NC1CCSC1=O (stereo unspecified) , please.
0.0229

###

Settings: in 2-ethoxyethanol, 313.15 K
endpointName: solubility (mole fraction)
Answers are plain numbers.

May I ask what solubility (mole fraction) has been recorded for CC(=O)NC1CCSC1=O (stereo unspecified) ?
0.223

###

Conditions: in ethanol, 298.15 K
endpointName: solubility (mole fraction)
Numbers only.

If you can, please state the reported solubility (mole fraction) value of CC(=O)NC1CCSC1=O (stereo unspecified) .
0.0866

###

Details: in n-butyl acetate, 278.15 K
endpointName: solubility (mole fraction)
Give bare numbers.

Data request, read-out solubility (mole fraction), for CC(=O)NC1CCSC1=O (stereo unspecified)
0.0119

###

Conditions: in n-propyl acetate, 323.15 K
endpointName: solubility (mole fraction)

What value of measured solubility (mole fraction) is listed for CC(=O)NC1CCSC1=O (stereo unspecified) ?
0.0575

###

Settings: in n-propyl acetate, 283.15 K
endpointName: solubility (mole fraction)
Numbers only.

Bench note: what solubility (mole fraction) did CC(=O)NC1CCSC1=O (stereo unspecified) show?
0.0155

###

Details: in n-propanol, 318.15 K
endpointName: solubility (mole fraction)
Numbers only.

Reported solubility (mole fraction) for CC(=O)NC1CCSC1=O (stereo unspecified) : what is it?
0.159

###

Conditions: in 2-ethoxyethanol, 298.15 K
endpointName: solubility (mole fraction)
Give bare numbers.

What solubility (mole fraction) value was documented for this molecule, CC(=O)NC1CCSC1=O (stereo unspecified) ?
0.158

###

Conditions: in n-propyl acetate, 288.15 K
endpointName: solubility (mole fraction)
Numbers only.

Which solubility (mole fraction) value belongs to CC(=O)NC1CCSC1=O (stereo unspecified) ?
0.0187

###

Conditions: in 2-methoxyethanol, 323.15 K
endpointName: solubility (mole fraction)
One number for each entry.

Need solubility (mole fraction), item CC(=O)NC1CCSC1=O (stereo unspecified)
0.344

###

Conditions: in methyl acetate, 323.15 K
endpointName: solubility (mole fraction)
Numbers only.

Request the reported solubility (mole fraction) associated with CC(=O)NC1CCSC1=O (stereo unspecified)
0.119
